Target: T1, human SIRPγ isoform 1 (human, UniProt Q9P1W8 29-147)
T1 construct: also called sirpg; sirp-g
T1 sequence (Q9P1W8 29-147 limits assumed): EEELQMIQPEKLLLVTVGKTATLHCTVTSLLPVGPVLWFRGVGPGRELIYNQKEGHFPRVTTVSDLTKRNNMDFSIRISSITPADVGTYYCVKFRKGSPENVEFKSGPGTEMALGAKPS
Test: SPR, antibody immobilised on GLC chip
# key: entry, value: Kd
property: Kd (nM)

INSERT INTO assay_data (binder, recorded_value) VALUES
  ('antibody 136 variant MutRv_S12T/mut (antibody, human IgG1, V domains shown, Human IgG1 with L234A/L235A/G237A/N297A; Labels are light chain/heavy chain) VH: EVQLVESGGGVVQPGRSLRLSCAASGFTFSSYDVNWVRQAPGKGLEWVSLISGSGEIIYYADSVKGRFTISRDNSKNTLYLQMNSLRAEDTAVYYCAKENNRYRFFDDWGQGTLVTVSS VL: EIVLTQSPGTLTLSPGERATLSCRASQSVYTYLAWYQQKPGQAPRLLIYGASSRATGIPDRFSGSGSGTEFTLTISSLQSEDFAVYYCQQYYDRPPLTFGGGTKVEIK', 66.7),
  ('antibody 136 variant Mut/mut (antibody, human IgG1, V domains shown, Human IgG1 with L234A/L235A/G237A/N297A; Labels are light chain/heavy chain) VH: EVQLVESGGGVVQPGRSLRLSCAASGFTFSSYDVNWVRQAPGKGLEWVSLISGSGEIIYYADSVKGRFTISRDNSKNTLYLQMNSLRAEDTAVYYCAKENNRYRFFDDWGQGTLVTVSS VL: EIVLTQSPGTLSLSPGERATLSCRASQSVYTYLAWYQQKPGQAPRLLIYGASSRATGIPDRFSGSGSGTEFTLTISSLQSEDFAVYYCQQYYDRPPLTFGGGTKVEIK', 28.8),
  ('antibody 136 variant MutRv_Q38E/mut (antibody, human IgG1, V domains shown, Human IgG1 with L234A/L235A/G237A/N297A; Labels are light chain/heavy chain) VH: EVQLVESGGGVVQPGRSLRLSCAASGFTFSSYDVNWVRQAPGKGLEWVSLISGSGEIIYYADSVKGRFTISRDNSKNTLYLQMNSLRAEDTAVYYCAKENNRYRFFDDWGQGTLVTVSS VL: EIVLTQSPGTLSLSPGERATLSCRASQSVYTYLAWYQEKPGQAPRLLIYGASSRATGIPDRFSGSGSGTEFTLTISSLQSEDFAVYYCQQYYDRPPLTFGGGTKVEIK', 19.3);
